Taken from ChEMBL document CHEMBL3044956.

Tested on: Meloidogyne incognita
measurementNotes: Nematicidal activity against second juvenile stage (J2) of Meloidogyne incognita (root-knot nematode) assessed as mortality incubated in the dark at 28 degC after 1 day by light microscopy (benficial crop Tomato)
Type: functional
testContext: 24 h
assayEndpoint: LC50 (µg/mL)
Give just the number in µg/mL; leave the unit off.

What measured LC50 is associated with CCCCCCCCCC[C@H](O)[C@H]1CC[C@H]([C@H]2CC[C@H]([C@H](O)CCCCCCCCCC[C@@H](O)CC3=C[C@H](C)OC3=O)O2)O1 (relative stereo) [REL-SQUAMOCIN-G] on Meloidogyne incognita?
0.864

What measured LC50 is associated with O=C/C=C/c1ccccc1 [CINNAMALDEHYDE] on Meloidogyne incognita?
15.1

---

Answer each item with its documented LC50.
System: Meloidogyne incognita
measurementNotes: Nematicidal activity against second juvenile stage (J2) of Meloidogyne incognita (root-knot nematode) assessed as mortality incubated in the dark at 28 degC after 2 days by light microscopy (benficial crop Tomato)
Format: functional
testContext: 48 h

Entry under review: CCCCCC[C@H](O)CCC[C@@H](O)[C@H]1CC[C@H]([C@H]2CC[C@H]([C@H](O)CCCCCCCCCCCCC3=C[C@H](C)OC3=O)O2)O1 (relative stereo) [REL-SQUAMOCIN] . Reported LC50?
> 100 µg/mL

Entry under review: CCCCCCCCCC[C@@H](O)[C@H]1CC[C@H]([C@H]2CC[C@H]([C@H](O)CCCCCCCCCC[C@@H](O)CC3=C[C@H](C)OC3=O)O2)O1 [REL-SQUAMOCIN-H] . Reported LC50?
71.2 µg/mL

Entry under review: O=C/C=C/c1ccccc1 [CINNAMALDEHYDE] . Reported LC50?
13.9 µg/mL

Entry under review: CCCCCCCCCC[C@H](O)[C@H]1CC[C@H]([C@H]2CC[C@H]([C@H](O)CCCCCCCCCC[C@@H](O)CC3=C[C@H](C)OC3=O)O2)O1 (relative stereo) [REL-SQUAMOCIN-G] . Reported LC50?
0.339 µg/mL
